Target: T1, native human MET on living cells (human, UniProt P08581 25-1390)
T1 construct: whole, on cells; also called Human cells (A549); HPAF-II
T1 sequence (P08581 25-1390): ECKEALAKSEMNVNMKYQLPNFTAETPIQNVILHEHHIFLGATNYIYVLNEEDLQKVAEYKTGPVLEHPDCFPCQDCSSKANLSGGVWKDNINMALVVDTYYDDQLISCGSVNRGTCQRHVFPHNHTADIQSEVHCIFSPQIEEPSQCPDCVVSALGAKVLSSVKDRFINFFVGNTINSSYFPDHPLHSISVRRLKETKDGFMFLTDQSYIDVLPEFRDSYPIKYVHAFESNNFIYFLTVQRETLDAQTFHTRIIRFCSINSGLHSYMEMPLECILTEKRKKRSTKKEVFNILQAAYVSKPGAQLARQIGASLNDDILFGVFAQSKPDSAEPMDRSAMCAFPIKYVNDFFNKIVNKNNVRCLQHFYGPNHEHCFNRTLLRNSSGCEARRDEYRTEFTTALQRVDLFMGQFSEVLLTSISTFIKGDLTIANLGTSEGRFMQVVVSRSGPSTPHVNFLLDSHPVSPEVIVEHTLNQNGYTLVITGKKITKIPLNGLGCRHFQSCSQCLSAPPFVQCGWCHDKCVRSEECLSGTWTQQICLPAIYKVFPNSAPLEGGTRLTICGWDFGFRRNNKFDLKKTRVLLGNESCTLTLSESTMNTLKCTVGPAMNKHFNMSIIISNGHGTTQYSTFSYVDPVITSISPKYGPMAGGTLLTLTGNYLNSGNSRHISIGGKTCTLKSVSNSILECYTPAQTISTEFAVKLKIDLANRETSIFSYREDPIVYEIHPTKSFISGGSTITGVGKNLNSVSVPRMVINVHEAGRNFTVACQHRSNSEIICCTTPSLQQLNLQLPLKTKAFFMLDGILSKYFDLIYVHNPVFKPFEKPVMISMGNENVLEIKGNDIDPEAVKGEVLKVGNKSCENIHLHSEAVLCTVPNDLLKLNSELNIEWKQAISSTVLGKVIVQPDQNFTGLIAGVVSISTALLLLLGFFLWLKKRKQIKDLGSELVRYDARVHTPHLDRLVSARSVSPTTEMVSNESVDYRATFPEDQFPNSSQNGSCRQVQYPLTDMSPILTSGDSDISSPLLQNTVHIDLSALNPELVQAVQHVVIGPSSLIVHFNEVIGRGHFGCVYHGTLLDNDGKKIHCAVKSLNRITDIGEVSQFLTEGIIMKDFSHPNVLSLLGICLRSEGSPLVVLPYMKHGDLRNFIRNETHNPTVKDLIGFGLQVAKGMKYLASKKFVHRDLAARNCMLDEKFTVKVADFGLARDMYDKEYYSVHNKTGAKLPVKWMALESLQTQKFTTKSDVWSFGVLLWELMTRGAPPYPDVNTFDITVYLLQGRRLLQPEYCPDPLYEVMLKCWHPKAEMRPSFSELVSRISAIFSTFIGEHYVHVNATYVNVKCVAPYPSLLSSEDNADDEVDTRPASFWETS
Experiment: flow cytometry, A549 cells
Method: We also analysed whether chimeric anti-MET antibodies bound to native human and mouse MET in living cells. […] Antibody binding to cells was analysed by flow cytometry using phycoerythrin-conjugated anti-human IgG1 antibodies (eBioscience) and a CyAn ADP analyser (Beckman Coulter). As a positive control for human MET binding, we used a commercial mouse anti-human MET antibody (R&D Systems) and phycoerythrin-conjugated anti-mouse IgG1 antibodies (eBioscience). […]
QUANTITY KIND: pEC50
Note on pEC50: it is the negative log10 of concentration, concentration in mol/L.

Known results for binders:
>>> reading("76H10 chimeric llama-human IgG1 mAb (antibody, V domains shown, llama VH on human IgG1 CH1-CH2-CH3, llama VL on human lambda CL) VH: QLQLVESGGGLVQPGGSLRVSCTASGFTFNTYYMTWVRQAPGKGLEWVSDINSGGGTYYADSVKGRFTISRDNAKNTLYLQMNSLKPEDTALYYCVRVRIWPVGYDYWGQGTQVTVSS VL: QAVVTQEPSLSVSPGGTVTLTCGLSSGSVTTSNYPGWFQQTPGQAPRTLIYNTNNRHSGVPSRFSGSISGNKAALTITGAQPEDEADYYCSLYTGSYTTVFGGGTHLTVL")
8.63
>>> reading("71G2 chimeric llama-human IgG1 mAb (antibody, V domains shown, llama VH on human IgG1 CH1-CH2-CH3, llama VL on human lambda CL) VH: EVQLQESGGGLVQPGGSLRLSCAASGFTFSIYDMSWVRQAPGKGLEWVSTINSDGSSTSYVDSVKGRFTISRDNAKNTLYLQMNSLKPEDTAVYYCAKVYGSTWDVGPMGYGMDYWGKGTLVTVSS VL: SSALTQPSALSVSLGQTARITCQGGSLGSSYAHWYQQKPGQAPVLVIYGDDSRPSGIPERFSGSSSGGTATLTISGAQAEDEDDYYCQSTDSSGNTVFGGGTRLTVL")
9.22
>>> reading("71D4 chimeric llama-human IgG1 mAb (antibody, V domains shown, llama VH on human IgG1 CH1-CH2-CH3, llama VL on human lambda CL) VH: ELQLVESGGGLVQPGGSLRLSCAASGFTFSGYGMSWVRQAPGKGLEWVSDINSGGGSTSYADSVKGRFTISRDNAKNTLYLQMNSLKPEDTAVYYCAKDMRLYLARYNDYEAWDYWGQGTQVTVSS VL: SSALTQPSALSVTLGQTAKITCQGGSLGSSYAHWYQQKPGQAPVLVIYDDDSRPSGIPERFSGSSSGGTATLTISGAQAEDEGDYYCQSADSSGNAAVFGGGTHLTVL")
9.43

Q: Returns the measured pEC50 for the input binder. Input: 71C3 chimeric llama-human IgG1 mAb (antibody, V domains shown, llama VH on human IgG1 CH1-CH2-CH3, llama VL on human lambda CL) VH: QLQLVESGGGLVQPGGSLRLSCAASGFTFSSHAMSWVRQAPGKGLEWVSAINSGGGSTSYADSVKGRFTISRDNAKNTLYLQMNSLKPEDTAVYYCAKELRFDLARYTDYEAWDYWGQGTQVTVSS VL: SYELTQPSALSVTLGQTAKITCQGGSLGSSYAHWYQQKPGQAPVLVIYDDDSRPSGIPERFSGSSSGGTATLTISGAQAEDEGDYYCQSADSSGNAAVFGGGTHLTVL
Result: 9.24

Q: Check 71G12 chimeric llama-human IgG1 mAb (antibody, V domains shown, llama VH on human IgG1 CH1-CH2-CH3, llama VL on human kappa CL) VH: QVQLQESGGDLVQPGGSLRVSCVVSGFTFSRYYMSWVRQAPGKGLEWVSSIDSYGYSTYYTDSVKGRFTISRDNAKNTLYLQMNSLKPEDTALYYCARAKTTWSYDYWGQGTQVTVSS VL: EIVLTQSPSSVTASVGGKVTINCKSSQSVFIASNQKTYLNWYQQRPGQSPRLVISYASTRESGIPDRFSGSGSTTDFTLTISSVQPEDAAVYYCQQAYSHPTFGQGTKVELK too.
Result: 8.64

Q: Check 74C8 chimeric llama-human IgG1 mAb (antibody, V domains shown, llama VH on human IgG1 CH1-CH2-CH3, llama VL on human lambda CL) VH: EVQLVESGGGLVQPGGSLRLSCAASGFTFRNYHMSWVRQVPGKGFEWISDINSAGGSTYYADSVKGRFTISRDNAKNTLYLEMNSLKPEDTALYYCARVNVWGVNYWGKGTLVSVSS VL: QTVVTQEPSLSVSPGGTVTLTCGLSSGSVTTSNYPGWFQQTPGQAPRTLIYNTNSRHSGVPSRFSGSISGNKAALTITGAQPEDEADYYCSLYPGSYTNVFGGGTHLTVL too.
Result: 9.63

Q: Check 76G7 chimeric llama-human IgG1 mAb (antibody, V domains shown, llama VH on human IgG1 CH1-CH2-CH3, llama VL on human lambda CL) VH: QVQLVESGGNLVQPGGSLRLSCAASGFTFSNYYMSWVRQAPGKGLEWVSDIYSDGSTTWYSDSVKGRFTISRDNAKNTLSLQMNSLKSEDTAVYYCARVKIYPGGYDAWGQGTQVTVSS VL: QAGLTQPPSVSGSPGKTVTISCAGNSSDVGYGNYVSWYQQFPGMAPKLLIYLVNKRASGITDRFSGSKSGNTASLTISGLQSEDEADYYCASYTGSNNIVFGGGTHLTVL too.
Result: 8.64

Q: Check 71D6 chimeric llama-human IgG1 mAb (antibody, V domains shown, llama VH on human IgG1 CH1-CH2-CH3, llama VL on human lambda CL) VH: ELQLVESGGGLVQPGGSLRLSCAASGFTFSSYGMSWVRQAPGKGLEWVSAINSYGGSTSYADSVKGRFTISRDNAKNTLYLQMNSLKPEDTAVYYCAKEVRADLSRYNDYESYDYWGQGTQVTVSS VL: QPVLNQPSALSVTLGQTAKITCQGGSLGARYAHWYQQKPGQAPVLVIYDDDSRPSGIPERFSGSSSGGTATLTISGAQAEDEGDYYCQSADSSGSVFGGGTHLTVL too.
Result: 9.59
